System: MCF7
PROCEDURE TEXT: cells
REPORTED CONDITIONS: Homo sapiens, MCF7, 72 h
Description: Antiproliferative activity against human MCF7 cells incubated for 72 hrs by MTT assay
Reported IC50 values for a set of compounds
The figure you give is taken to be in µM; do not add the unit.

Please review the entries below; each comes with its answer.
- COMPOUND: "CCN(c1ccc(OCCN2CCCCC2)cc1)S(=O)(=O)[C@H]1C[C@H]2O[C@@H]1C(c1ccc(O)cc1)=C2c1ccc(O)cc1 (relative stereo)"
  MEASUREMENT UNITS: "µM"
  IC50: 5.4
- COMPOUND: "CCN(c1ccccc1)S(=O)(=O)[C@H]1C[C@H]2O[C@@H]1C(c1ccc(OCC(O)CO)cc1)=C2c1ccc(O)cc1 (relative stereo)"
  MEASUREMENT UNITS: "µM"
  IC50: 33.6
- COMPOUND: "CCN(c1ccccc1)S(=O)(=O)[C@H]1C[C@H]2O[C@@H]1C(c1ccc(OCCCCCCCCCCC(=O)O)cc1)=C2c1ccc(O)cc1 (relative stereo)"
  MEASUREMENT UNITS: "µM"
  IC50: 10.3
- COMPOUND: "CC/C(=C(\\c1ccc(O)cc1)c1ccc(OCCN(C)C)cc1)c1ccccc1 [AFIMOXIFENE]"
  MEASUREMENT UNITS: "µM"
  IC50: 10.1
- COMPOUND: "CCN(c1ccc(OCCCCCCCC(=O)O)cc1)S(=O)(=O)[C@H]1C[C@H]2O[C@@H]1C(c1ccc(O)cc1)=C2c1ccc(O)cc1 (relative stereo)"
  MEASUREMENT UNITS: "µM"
  IC50: 24.9

Field: next compound
// lookup IC50 | system=MCF7 | key= CCN(c1ccc(OCC(O)CO)cc1)S(=O)(=O)[C@H]1C[C@H]2O[C@@H]1C(c1ccc(O)cc1)=C2c1ccc(O)cc1 (relative stereo)
32.3

---

Below, each entry is listed alongside its reported RBA.
STUDY TARGET: Estrogen receptor (Homo sapiens) (UniProt P03372)
Sequence (whole entry): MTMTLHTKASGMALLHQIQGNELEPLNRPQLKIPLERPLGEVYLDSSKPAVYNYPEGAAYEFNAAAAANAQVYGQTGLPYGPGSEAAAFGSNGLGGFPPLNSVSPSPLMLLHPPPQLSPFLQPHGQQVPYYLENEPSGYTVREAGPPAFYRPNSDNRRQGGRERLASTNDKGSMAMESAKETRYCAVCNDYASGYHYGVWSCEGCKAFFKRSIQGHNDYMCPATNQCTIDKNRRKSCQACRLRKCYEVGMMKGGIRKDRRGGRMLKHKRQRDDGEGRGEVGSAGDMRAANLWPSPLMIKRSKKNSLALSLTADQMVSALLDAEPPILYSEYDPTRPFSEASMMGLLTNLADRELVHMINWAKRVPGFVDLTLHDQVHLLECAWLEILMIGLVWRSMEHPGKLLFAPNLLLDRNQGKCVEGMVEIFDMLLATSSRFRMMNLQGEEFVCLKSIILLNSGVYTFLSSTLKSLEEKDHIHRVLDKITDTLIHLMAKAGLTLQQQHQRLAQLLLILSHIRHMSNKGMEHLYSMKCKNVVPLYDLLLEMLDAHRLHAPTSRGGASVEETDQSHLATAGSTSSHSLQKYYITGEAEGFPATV
PROCEDURE TEXT: Binding affinity to purified human ERalpha LBD incubated for 2 hrs by fluorescence tracer based competitive fluorometric binding assay relative to estradiol
Number only, in %; omit the unit.

Reference set (3 entries):
- COMPOUND: "O=S(=O)([C@H]1C[C@H]2O[C@@H]1C(c1ccc(OCC(O)CO)cc1)=C2c1ccc(O)cc1)N(CC(F)(F)F)c1ccc(Cl)cc1 (relative stereo)"
  STUDY TARGET: "Estrogen receptor (Homo sapiens) (UniProt P03372)"
  MEASUREMENT UNITS: "%"
  RBA: 1.62
- COMPOUND: "COc1ccc(N(CC(F)(F)F)S(=O)(=O)[C@H]2C[C@H]3O[C@@H]2C(c2ccc(OCCN4CCCC4)cc2)=C3c2ccc(O)cc2)cc1 (relative stereo)"
  STUDY TARGET: "Estrogen receptor (Homo sapiens) (UniProt P03372)"
  MEASUREMENT UNITS: "%"
  RBA: 2.12
- COMPOUND: "CCN(c1ccc(OCCN2CCCCC2)cc1)S(=O)(=O)[C@H]1C[C@H]2O[C@@H]1C(c1ccc(O)cc1)=C2c1ccc(O)cc1 (relative stereo)"
  STUDY TARGET: "Estrogen receptor (Homo sapiens) (UniProt P03372)"
  MEASUREMENT UNITS: "%"
  RBA: 0.58

Consider the compound CCN(c1ccccc1)S(=O)(=O)[C@H]1C[C@H]2O[C@@H]1C(c1ccc(OCCN3CCCCC3)cc1)=C2c1ccc(O)cc1 (relative stereo) and give its measured RBA.
2.51
